TARGET_DESC: Mu-type opioid receptor (Rattus norvegicus, UniProt P33535)
Sequence (P33535 whole entry): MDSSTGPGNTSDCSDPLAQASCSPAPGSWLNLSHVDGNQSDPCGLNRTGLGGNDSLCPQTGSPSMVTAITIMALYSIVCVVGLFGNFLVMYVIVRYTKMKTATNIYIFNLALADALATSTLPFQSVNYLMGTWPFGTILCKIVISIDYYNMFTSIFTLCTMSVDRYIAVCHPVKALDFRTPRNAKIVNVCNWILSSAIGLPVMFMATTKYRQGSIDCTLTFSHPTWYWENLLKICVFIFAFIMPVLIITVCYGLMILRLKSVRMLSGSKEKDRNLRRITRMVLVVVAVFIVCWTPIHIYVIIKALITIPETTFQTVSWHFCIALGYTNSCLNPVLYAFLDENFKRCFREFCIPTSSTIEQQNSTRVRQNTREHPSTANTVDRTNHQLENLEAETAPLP
PROTOCOL_TEXT: mu-1 receptor binding affinity in rat brain by 3H [d-Ala2, d-Leu5] enkephalin displacement.
Type: tissue-based
PARAMETER_MEASURED: pKi
# reply with the number alone; pKi is -log10 of concentration in mol/L

For orientation, consider the following solved cases.
>>> endpoint_result("CC1OC(O[C@H]2C=C[C@H]3[C@H]4Cc5ccc(O)c6c5C3(CCN4C)[C@H]2O6)C(O)C(O)C1O (stereo not given in full)")
9.77
>>> endpoint_result("CN1CC[C@]23c4c5ccc(O)c4O[C@H]2[C@@H](OC2O[C@@H](C(=O)O)CC(O)C2O)C=C[C@H]3[C@H]1C5 (stereo not given in full)")
8.72
>>> endpoint_result("CN1CCC23c4c5ccc(O)c4O[C@H]2[C@@H](O[C@@H]2O[C@H](C(=O)O)[C@@H](O)[C@H]2O)C=C[C@H]3[C@H]1C5")
8.80
>>> endpoint_result("CN1CCC23c4c5ccc(O)c4O[C@H]2[C@@H](O[C@@H]2O[C@@H](CO)[C@@H](O)[C@H](O)[C@@H]2O)CC[C@H]3[C@H]1C5")
9.68

Next compound, please.
Req: # query: pKi of entry COc1ccc2c3c1O[C@H]1[C@@H](O[C@@H]4O[C@@H](C(=O)O)[C@@H](O)[C@H](O)[C@@H]4O)C=C[C@H]4[C@@H](C2)N(C)CC[C@@]341
Resp: 7.07

----------
TARGET_DESC: Mu-type opioid receptor (Rattus norvegicus)
PROTOCOL_TEXT: mu-1 receptor binding affinity in rat brain by 3H [d-Ala2, d-Leu5] enkephalin displacement.
Format: tissue-based
PARAMETER_MEASURED: pKi
Remember, pKi is on a log scale: it is -log10 of the molar concentration.

As a guide, the following entries are already answered.
>>> endpoint_result("CN1CCC23c4c5ccc(O)c4O[C@H]2[C@@H](OC2CCCC(C(=O)O)O2)C=C[C@H]3[C@H]1C5 (some centres not stated)")
9.29
>>> endpoint_result("CN1CC[C@]23c4c5ccc(O)c4O[C@H]2[C@@H](O[C@@H]2O[C@H](C(=O)O)[C@@H](O)[C@H](O)[C@H]2O)C=C[C@H]3[C@H]1C5 [MORPHINE GLUCURONIDE]")
8.82
>>> endpoint_result("CN1CC[C@]23c4c5ccc(O)c4O[C@H]2[C@@H](OC2OC(CO)[C@H](O)C(O)C2O)C=C[C@H]3[C@H]1C5 (some centres not stated)")
9.55
>>> endpoint_result("CN1CCC23c4c5ccc(O)c4O[C@H]2[C@@H](OC2OC(C(=O)O)=CC(O)C2O)C=C[C@H]3[C@H]1C5 (some centres not stated)")
8.85
>>> endpoint_result("CN1CC[C@]23c4c5ccc(O)c4O[C@H]2[C@@H](O[C@@H]2O[C@H](C(=O)O)C[C@H](O)[C@@H]2O)C=C[C@H]3[C@H]1C5")
9.22
>>> endpoint_result("O=C(O)[C@@H]1O[C@@H](O[C@H]2C=C[C@H]3[C@H]4Cc5ccc(O)c6c5C3(CCN4CC3CC3)[C@H]2O6)[C@@H](O)[C@@H](O)[C@@H]1O")
10.22

Req: // query pKi value for entry CN1CCC23c4c5ccc(O)c4O[C@H]2[C@@H](OC2OC(CO)[C@H](O)C(O)C2O)C=C[C@H]3[C@H]1C5 (some centres not stated)
Resp: 8.92

Req: # input compound: O=C(O)[C@@H]1O[C@@H](O[C@H]2C=C[C@H]3[C@H]4Cc5ccc(O)c6c5[C@@]3(CCN4)[C@H]2O6)[C@@H](O)[C@@H](O)[C@@H]1O ; wanted: its pKi
Resp: 9.01

Req: Sample O=C(O)CN1CC[C@]23c4c5ccc(O)c4O[C@H]2[C@@H](O[C@@H]2O[C@@H](C(=O)O)[C@@H](O)[C@H](O)[C@@H]2O)C=C[C@H]3[C@H]1C5 — what was its pKi?
Resp: 7.48

----------
TARGET_DESC: Mu-type opioid receptor (Rattus norvegicus)
PROTOCOL_TEXT: mu-2 receptor binding affinity in rat brain by 3H [d-Ala2, (N-Me)Phe4, Gly5-ol] enkephalin displacement.
Format: tissue-based
PARAMETER_MEASURED: pKi
Give only the number. pKi is defined as minus log10 of concentration in molar units.

>>> endpoint_result("CN1CC[C@]23c4c5ccc(O)c4O[C@H]2[C@@H](O[C@@H]2O[C@H](C(=O)O)[C@@H](O)[C@H](O)[C@H]2O)C=C[C@H]3[C@H]1C5 [MORPHINE GLUCURONIDE]")
7.59
>>> endpoint_result("CN1CC[C@]23c4c5ccc(O)c4O[C@H]2[C@@H](OC2O[C@@H](C(=O)O)CC(O)C2O)C=C[C@H]3[C@H]1C5 (some centres not stated)")
7.24
>>> endpoint_result("CN1CCC23c4c5ccc(O)c4O[C@H]2[C@@H](OC2C=CC(O)C(C(=O)O)O2)C=C[C@H]3[C@H]1C5 (some centres not stated)")
6.75
>>> endpoint_result("CN1CCC23c4c5ccc(O)c4O[C@H]2[C@@H](OC2OC(C(=O)O)=CC(O)C2O)C=C[C@H]3[C@H]1C5 (some centres not stated)")
7.32
>>> endpoint_result("CN1CC[C@]23c4c5ccc(O)c4O[C@H]2[C@@H](O[C@@H]2O[C@H](C(=O)O)C[C@H](O)[C@@H]2O)C=C[C@H]3[C@H]1C5")
6.76
>>> endpoint_result("CC1OC(O[C@H]2C=C[C@H]3[C@H]4Cc5ccc(O)c6c5C3(CCN4C)[C@H]2O6)C(O)C(O)C1O (some centres not stated)")
8.21
>>> endpoint_result("CN1CCC23c4c5ccc(O)c4O[C@H]2[C@@H](OC2CCCC(C(=O)O)O2)C=C[C@H]3[C@H]1C5 (some centres not stated)")
6.77
>>> endpoint_result("CN1CC[C@]23c4c5ccc(O)c4O[C@H]2[C@@H](OC2OC(CO)[C@H](O)C(O)C2O)C=C[C@H]3[C@H]1C5 (some centres not stated)")
8.49

Kindly consider the entry below.
Req: Could you tell me which pKi is on file for C=CCN1CC[C@]23c4c5ccc(O)c4O[C@H]2[C@@H](O[C@@H]2O[C@@H](C(=O)O)[C@@H](O)[C@H](O)[C@@H]2O)C=C[C@H]3[C@H]1C5 ?
Resp: 8.00

----------
Readings of AUEC for the listed compounds
System: Mus musculus
PROTOCOL_TEXT: Area under the antinociceptive effect time curve after 2 mg/kg administration in mice.
Assay type: functional
Reply with just the number (in %·min).

>>> endpoint_result("CN1CCC23c4c5ccc(O)c4O[C@H]2[C@@H](OC2OC(CO)[C@H](O)C(O)C2O)C=C[C@H]3[C@H]1C5 (some centres undefined)")
682
>>> endpoint_result("CN1CCC23c4c5ccc(O)c4O[C@H]2[C@@H](O[C@@H]2O[C@@H](C(=O)O)[C@@H](O)[C@H](O)[C@@H]2O)CC[C@H]3[C@H]1C5")
1667
>>> endpoint_result("CN1CCC23c4c5ccc(O)c4O[C@H]2[C@@H](OC2CCCC(C(=O)O)O2)C=C[C@H]3[C@H]1C5 (some centres undefined)")
230

Okay, now this compound:
Req: What measured AUEC goes with CN1CCC23c4c5ccc(O)c4O[C@H]2[C@@H](O[C@@H]2O[C@@H](CO)[C@@H](O)[C@H](O)[C@@H]2O)CC[C@H]3[C@H]1C5 ?
Resp: 1490

----------
Test system: Mus musculus
PROTOCOL_TEXT: Area under the antinociceptive effect time curve was determined after administration of 8 mg/kg in mice
Assay type: functional
Known AUEC of a selection of compounds
Report the value in A% min-1 with no unit label.

Would you please look over these solved cases?
>>> endpoint_result("CN1CCC23c4c5ccc(O)c4O[C@H]2[C@@H](OC2OC(C(=O)O)=CC(O)C2O)C=C[C@H]3[C@H]1C5 (stereo partly drawn)")
701
>>> endpoint_result("O=C(O)[C@@H]1O[C@@H](O[C@H]2C=C[C@H]3[C@H]4Cc5ccc(O)c6c5C3(CCN4CC3CC3)[C@H]2O6)[C@@H](O)[C@@H](O)[C@@H]1O")
266

API: the following record is the query input.
Req: Consider the compound shown here: CN1CCC23c4c5ccc(O)c4O[C@H]2[C@@H](O[C@@H]2O[C@H](C(=O)O)[C@@H](O)[C@H]2O)C=C[C@H]3[C@H]1C5 What is its recorded AUEC?
Resp: 596

----------
Below: a set of entries, each annotated with reported pKi.
TARGET_DESC: Mu-type opioid receptor (Rattus norvegicus, UniProt P33535)
PROTOCOL_TEXT: mu-1 receptor binding affinity in rat brain by 3H [d-Ala2, d-Leu5] enkephalin displacement.
Type: tissue-based
Remember the convention: pKi equals -log10 of concentration in molar.

// solved cases for pKi follow
>>> endpoint_result("C=CCN1CC[C@]23c4c5ccc(O)c4O[C@H]2[C@@H](O[C@@H]2O[C@@H](C(=O)O)[C@@H](O)[C@H](O)[C@@H]2O)C=C[C@H]3[C@H]1C5")
9.70
>>> endpoint_result("CN1CCC23c4c5ccc(O)c4O[C@H]2[C@@H](OC2C=CC(O)C(C(=O)O)O2)C=C[C@H]3[C@H]1C5 (stereo partly drawn)")
8.49

Req: Fill in the blank: the reported pKi of CN1CCC23c4c5ccc(O)c4O[C@H]2[C@@H](O[C@@H]2O[C@@H](C(=O)O)[C@@H](O)[C@H](O)[C@@H]2O)CC[C@H]3[C@H]1C5 is ____.
Resp: 9.60
